The values you see were collected from PubChem BioAssay (NCI).

# Tested on: SK-MEL-2 melanoma
# procedure-text: NCI-60 one-dose screen, 48 h
# protocol-conditions: 10 µM unless noted
# Experimental: Growth inhibition of the SK-MEL-2 human tumor cell line is measured as a screen for anti-cancer activity. Cells are grown in 96 well plates and exposed to the test compound for 48 hours. Compounds are tested at a single concentration, which is 10^-5 M for most compounds. The reported endpoint is percent growth (GI% or GIPRCNT), where numbers from 0 - 100% represent growth inhibition, and numbers from -100% - 0 represent cell death. For example, a value of 40 represents 60% growth inhibition. […]
The panel holds about 83,000 compounds, 20% with a hit somewhere; the sample as a whole holds those more often. Activity calls are given as the source filed them. How the source made its calls: active means growth percent below 10; inactive means the rest.
Just give me one of these, please: label 1 (active), label 0 (inactive)

Prompt: Look up the recorded call for `CCC(C)(C)c1ccc(Nc2ccc(Nc3ccc(C(C)(C)CC)cc3)cc2)cc1` in this test.
Completion: label 0

Prompt: Look up the recorded call for `COc1cc2c(cc1-c1c(C)noc1C)ncc1nc(CN3CCOCC3)n([C@H](C)COC(F)F)c12` in this test.
Completion: label 0

Prompt: Look up the recorded call for `CC(=O)c1c(Nc2cccc(F)c2)[nH]c2c(Cl)cc(Cl)c(Cl)c2c1=O` in this test.
Completion: label 1
